target under test: H^+,K^+-ATPase D137F (Sus scrofa, UniProt P19156, D138F)
Sequence (P19156 whole entry D138F): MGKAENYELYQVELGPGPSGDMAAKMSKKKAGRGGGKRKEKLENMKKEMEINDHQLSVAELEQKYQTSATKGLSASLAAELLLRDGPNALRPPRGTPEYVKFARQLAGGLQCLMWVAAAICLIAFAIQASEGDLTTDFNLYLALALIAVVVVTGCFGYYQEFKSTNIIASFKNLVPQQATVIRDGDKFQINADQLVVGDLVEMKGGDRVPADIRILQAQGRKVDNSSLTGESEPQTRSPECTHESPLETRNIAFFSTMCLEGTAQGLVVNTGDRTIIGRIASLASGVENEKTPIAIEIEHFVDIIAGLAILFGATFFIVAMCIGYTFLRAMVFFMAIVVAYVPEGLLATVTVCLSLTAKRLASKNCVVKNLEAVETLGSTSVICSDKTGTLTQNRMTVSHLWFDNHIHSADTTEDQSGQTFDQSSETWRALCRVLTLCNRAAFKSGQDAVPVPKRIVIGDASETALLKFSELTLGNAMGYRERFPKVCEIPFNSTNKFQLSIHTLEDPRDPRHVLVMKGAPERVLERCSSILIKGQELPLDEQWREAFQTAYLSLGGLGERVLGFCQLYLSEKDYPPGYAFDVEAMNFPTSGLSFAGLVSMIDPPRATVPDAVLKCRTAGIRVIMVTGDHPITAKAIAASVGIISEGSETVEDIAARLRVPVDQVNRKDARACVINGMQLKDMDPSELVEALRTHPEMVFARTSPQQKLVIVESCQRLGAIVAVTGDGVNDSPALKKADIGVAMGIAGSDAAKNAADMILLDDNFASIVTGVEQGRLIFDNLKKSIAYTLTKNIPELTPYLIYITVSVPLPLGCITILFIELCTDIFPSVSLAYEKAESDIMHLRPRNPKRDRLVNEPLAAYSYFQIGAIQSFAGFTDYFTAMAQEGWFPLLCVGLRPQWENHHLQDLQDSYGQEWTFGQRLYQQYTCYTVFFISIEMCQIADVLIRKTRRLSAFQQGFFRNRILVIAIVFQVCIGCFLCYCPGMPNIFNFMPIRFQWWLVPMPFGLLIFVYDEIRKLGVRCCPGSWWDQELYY
Sequence (P18434 whole entry partner): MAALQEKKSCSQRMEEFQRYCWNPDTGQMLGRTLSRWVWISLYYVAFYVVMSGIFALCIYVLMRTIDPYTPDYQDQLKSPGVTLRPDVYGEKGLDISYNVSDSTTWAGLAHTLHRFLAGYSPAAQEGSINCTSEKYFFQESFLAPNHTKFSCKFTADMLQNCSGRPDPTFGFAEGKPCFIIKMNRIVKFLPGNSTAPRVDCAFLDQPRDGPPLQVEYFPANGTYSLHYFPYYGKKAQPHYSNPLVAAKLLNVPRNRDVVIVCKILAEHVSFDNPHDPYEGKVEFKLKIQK
assay protocol: ATPase assay, D137F mutant
reported conditions: D137F
parameter measured: -fold increase in K i compared with wild-type (fold)
One number for each entry, in fold.

{"compound": "Cc1nc2c3c(ccn2c1C)[C@@H](O)[C@H](O)[C@@H](c1ccccc1)N3 [BYK99]", "measured result": 110}
{"compound": "N#CCc1cnc2c(OCc3ccccc3)cccn12 [SCH-Me^−]", "measured result": 3.1}

For the 2 compounds below, give their -fold increase in K i compared with wild-type values.
1. Cc1nc2c3c(ccn2c1C)[C@@H](O)[C@H](O)[C@@H](c1ccccc1)N3C [BYK73]
2. Cc1cn2cccc(OCc3ccccc3)c2n1 [SCH-CN^−]

**Result**
22
15
